Recorded values, source ChEMBL document CHEMBL4325911.

Assay: Permeability in RRCK cells measured up to 1.5 hrs
Type: ADME, cell-based, Canis lupus familiaris, MDCKII-LE
Details: dog, MDCK; read-out: permeability
readout.kind: Papp at 1.5 h
Report field: quantity (unit follows the number).

// field: Papp at 1.5 h; key: Cc1cnc2c(c1)nnn2-c1ccc(CCC(=O)N(c2ncccc2Cl)[C@@H]2CCCNC2)nc1 ; value = 6.2 ×10⁻⁶ cm/s

# Papp at 1.5 h of O=C(N1CCC(c2ccccc2)CC1)N(c1nccc2ccccc12)[C@@H]1CCCNC1 = 3.9 ×10⁻⁶ cm/s

Record summary for Cn1ccc2ccnc(N(C(=O)N3CCC(c4ccccc4)CC3)[C@@H]3CCCNC3)c21 : reported Papp at 1.5 h = 5.2 ×10⁻⁶ cm/s

Papp at 1.5 h measured on Cc1ccc2c(N3CCN(C(=O)N(c4nccc5ccccc45)[C@@H]4CCCNC4)CC3)noc2c1 = 8.9 ×10⁻⁶ cm/s

According to the records, this molecule O=C(c1ccc(-c2ccccc2)cc1)N(c1nccc2ccccc12)[C@@H]1CCCNC1 displays Papp at 1.5 h of 0.3 ×10⁻⁶ cm/s
